- assay-info: protein stability index of a GFP-peptide fusion (GPS, HEK-293T) (PSI 1-6); higher = more stable;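 also: 24-mer peptide tiles fused after GFP, lentivirally expressed, FACS-sorted into six equal bins by GFP/DsRed ratio, decoded by Illumina sequencing, PSI is the read-weighted mean bin number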
- cond: treatment: MLN4924 1 uM, 8 h; c terminus: a fixed tail appended
Rule: protein stability index of 3 or more gives t; anything lower gives f.

[[record]]
seq_string = "PPDRTLGCWATDAAPAAGLCGAGS [RSPH3]"
cat = "t"

[[record]]
seq_string = "SGCLPPEPLFEAGDATLASDLQDW [FOXJ1]"
cat = "t"

[[record]]
seq_string = "SSRSSEESSSDSGSSDSEEERATR [BRD3]"
cat = "t"

[[record]]
seq_string = "KPLTLEALGHLGNDDSADYQHFLQ [DLC1]"
cat = "t"

[[record]]
seq_string = "VIATATVYFKRFYARYSLKSIDPV [CCNC]"
cat = "f"

[[record]]
seq_string = "QLSSFGSVDWLSQSSCSGPTHTPR [VENTX]"
cat = "t"

[[record]]
seq_string = "PLHLSALRDDVLCARMLYNYGADT [ASB7]"
cat = "f"

[[record]]
seq_string = "QLQRSWVKMDQKSKHLKEMYQELM [TRIM43]"
cat = "f"

[[record]]
seq_string = "CEIQVRTLASAGGPDNLVLLNPEK [ADD1]"
cat = "t"

[[record]]
seq_string = "HHKTYDPTYSDFCQFRPPVRVNDG [VDR]"
cat = "t"

[[record]]
seq_string = "VTGLNPKTKYILLMDIVPADDHRY [TBX5]"
cat = "f"

[[record]]
seq_string = "ILIIQGVLSDINLKKGESECQYYI [NET1]"
cat = "f"

[[record]]
seq_string = "RESWDSAKKLPPVQESQSERLQAA [ELOA2]"
cat = "t"


====

Readings of protein stability index for the listed sequences
- assay-info: protein stability index of a GFP-peptide fusion (GPS, HEK-293T) (PSI 1-6); higher = more stable
- cond: treatment: DMSO; c terminus: a fixed tail appended
observed-property: protein stability index

[[record]]
seq_string = "DTCRTQLVWLVRELVKSGVLGADG [INTS3]"
reading = 2.51

[[record]]
seq_string = "TYWEHWTSQGQVRMRLFGQRCQKC [RTP4]"
reading = 2.33

[[record]]
seq_string = "PDHFDTAILFTRQDLCGVSTCDTL [ADAMTS4]"
reading = 2.83

[[record]]
seq_string = "RYFSLSLMSGALAVNQKIDRESLC [PCDHGC5]"
reading = 2.03

[[record]]
seq_string = "WKESKGKDREYTDIIRKQVLGTKV [CDC34]"
reading = 3.66

[[record]]
seq_string = "CSKSYSRRSFLIEHQRSHTGERPH [ZSCAN9]"
reading = 3.42

[[record]]
seq_string = "QDSTRTVGERLQDTHSWKSELQRE [TEKT4]"
reading = 4.88

[[record]]
seq_string = "SPSRAPGLRQRASNKVQDSAPVET [HMOX1]"
reading = 5.01

[[record]]
seq_string = "RDGYGMTPLLAASVTGHTNIVEYL [FEM1A]"
reading = 2.92

[[record]]
seq_string = "KSITSAMNELQHDLDVVSDALAKV [TPH1]"
reading = 4.4

[[record]]
seq_string = "NWLIKYDCPMDSSSSRDTDWVVVK [PI4K2A]"
reading = 2.83

[[record]]
seq_string = "IFSGAASLGYGTNVAATGISQYED [APBB1IP]"
reading = 3.83

[[record]]
seq_string = "KPSKELKPLLGSAVLGLLLVLAAV [MYORG]"
reading = 2.4

[[record]]
seq_string = "SRAGGPTTPLSPTRLSRLQEKEEL [LMNB1]"
reading = 5.15

[[record]]
seq_string = "HPVTIGGKIVGSLCAIAGVLTIAL [KCNA3]"
reading = 2.6

[[record]]
seq_string = "ADLRLGGQPAPPQLLLGRLFRWPD [SMAD6]"
reading = 2.84

[[record]]
seq_string = "ARDVQKIIGDYFSDQDPRVRTAAI [INTS4]"
reading = 3.03

[[record]]
seq_string = "AEADEPTTHFQSIPDAFWWAVVTM [KCNA4]"
reading = 2.04

[[record]]
seq_string = "FGMAKIDNLLQEMLLGGSPSDAPH [HNF4A]"
reading = 2.8

[[record]]
seq_string = "IREDRDRARLDSMVLLIMKLDQLD [DLC1]"
reading = 2.35

[[record]]
seq_string = "DIELGCSTPLMEAAQEGHLELVKY [ANKRD17]"
reading = 4.03

[[record]]
seq_string = "PRLQQLLKTLEEGLEGLEDAPPVE [FANCE]"
reading = 4.41

[[record]]
seq_string = "GSYTVQSELGDYDPDECGSDYISE [EPB41L3]"
reading = 4.83

[[record]]
seq_string = "EGLELTEQTFSPAKSLSFRKGELV [ADD1]"
reading = 4

[[record]]
seq_string = "LQREKEFKAKEAAALGSRGSCSTE [ATP6V1G1]"
reading = 5.12

[[record]]
seq_string = "PGEDENPEKASELSQVELQAAPGA [TRIM55]"
reading = 5.56

[[record]]
seq_string = "KQKTSAALSTMGTLICRKLGGVKK [TPD52L3]"
reading = 2.98

[[record]]
seq_string = "VAIFGPPNTYYEGGYFKARLKFPI [CDC34]"
reading = 2.24

[[record]]
seq_string = "YNYMMGIEFNPRIGKWFDFKLFFN [DHCR7]"
reading = 2.52

[[record]]
seq_string = "QIMQGLEHPFLVNLWYSFQDEEDM [STK32A]"
reading = 2.19

[[record]]
seq_string = "QRLKAVIVIQTYYRQWHAKIFVEN [IQUB]"
reading = 2.83

[[record]]
seq_string = "LTVAKCWDPSPRGCFTLPRSEPIR [DVL3]"
reading = 2.43

[[record]]
seq_string = "LWVEERALLEGEKALWEDKTSLWE [CCDC70]"
reading = 2.6

[[record]]
seq_string = "SIRLPLDAPLPGSKAKPKPPKQAQ [TBC1D10A]"
reading = 4.36

[[record]]
seq_string = "DETGITVASLERFSTYTSDKDENK [ZC3H15]"
reading = 5.14

[[record]]
seq_string = "KHLTDTSHGVRNKCLQLLGNLGSL [INTS4]"
reading = 2.45

[[record]]
seq_string = "YYFIMACDQYSCALTGPVVDIVTG [DHCR7]"
reading = 3.35

[[record]]
seq_string = "MLDFLSERPWIKRMIFKLFSQETV [APMAP]"
reading = 1.98

[[record]]
seq_string = "RIHSGKKPYACDECAKAFSRSAIL [ZNF396]"
reading = 2.31

[[record]]
seq_string = "VIATATVYFKRFYARYSLKSIDPV [CCNC]"
reading = 2.8

[[record]]
seq_string = "SLQKLSTKLSAQSAQYSQQLQAAR [FCHSD1]"
reading = 3.34

[[record]]
seq_string = "HPPSHWPLIKATVGLIRNLALCPA [CTNNB1]"
reading = 2.65

[[record]]
seq_string = "PPMTQAQAVSAPGILNRPPAPTAT [ZNF207]"
reading = 5.01

[[record]]
seq_string = "EMHFLENAKKLSMYGVDLHHAKDS [EPB41L3]"
reading = 3.03

[[record]]
seq_string = "FYMRTNPFYPEVELNFISVFWPQL [MMP1]"
reading = 3.11

[[record]]
seq_string = "ERLAHSRAAAAAAVAAATAAVEGS [KCNA4]"
reading = 4.38

[[record]]
seq_string = "WNMDKYTMIRKLEGHHHDVVACDF [WSB1]"
reading = 2.38

[[record]]
seq_string = "IKSDEECRDLVDEAKNYLLLPQER [KLHL20]"
reading = 4.68

[[record]]
seq_string = "RAISTSVCVRAHESVVKSEDFSLP [COX4I1]"
reading = 3.9

[[record]]
seq_string = "KDTRMAEEYCHKHYDRNKDGNKDV [VPS39]"
reading = 4.68

[[record]]
seq_string = "SSRSSEESSSDSGSSDSEEERATR [BRD3]"
reading = 5.06

[[record]]
seq_string = "CAVTFFTILLSYGVILHSLKTQSL [OR4A15]"
reading = 3.59

[[record]]
seq_string = "DARMLDHLTKKDLRVHLKMVDSFH [PPFIA4]"
reading = 2.48


====

- assay-info: protein stability index of a GFP-peptide fusion (GPS, HEK-293T) (PSI 1-6); higher = more stable
- cond: treatment: MLN4924 1 uM, 8 h; c terminus: a fixed tail appended
Classes (protein stability index): bottom bin = under 3, middle bin = from 3 up to 4, top bin = 4 and over

[[record]]
seq_string = "EGYCQAQAPIAAVLLMHMPAEQAF [TBC1D10A]"
cat = "bottom bin"

[[record]]
seq_string = "SISRGRHARTHPQTALLESSCENK [MATN2]"
cat = "top bin"

[[record]]
seq_string = "SELTRLIQRIRSEIENVKKQASNL [KRT71]"
cat = "bottom bin"

[[record]]
seq_string = "SAALFYLTNSEYRSEQSVKLRRQV [ZER1]"
cat = "bottom bin"

[[record]]
seq_string = "SELGDYDPDECGSDYISEFRFAPN [EPB41L3]"
cat = "middle bin"

[[record]]
seq_string = "ICTNLCEALQNFFSLACSLMGPSR [M1AP]"
cat = "bottom bin"

[[record]]
seq_string = "RLFLVEDLVDSLKLAVFMWLMTYV [RTN3]"
cat = "bottom bin"

[[record]]
seq_string = "TRHLKRLALMIQSSGNTVLLLILC [TMEM192]"
cat = "bottom bin"

[[record]]
seq_string = "KDTRMAEEYCHKHYDRNKDGNKDV [VPS39]"
cat = "top bin"

[[record]]
seq_string = "TFGDHHKDRRFAYGRSDVVVLCFS [RHOBTB1]"
cat = "bottom bin"

[[record]]
seq_string = "MSVSEIFVELQGFLAAEQDIREEI [TSN]"
cat = "bottom bin"

[[record]]
seq_string = "VTVSDASWVSELLWSLFVPFTVYQ [AUP1]"
cat = "middle bin"

[[record]]
seq_string = "PHAMTIQELVDYVNARQKQGIYEE [PTPN9]"
cat = "middle bin"

[[record]]
seq_string = "DPSVRLKIASLLGLLSKTAGFSPD [INTS4]"
cat = "bottom bin"

[[record]]
seq_string = "DETGITVASLERFSTYTSDKDENK [ZC3H15]"
cat = "top bin"

[[record]]
seq_string = "LLTSPRAINNLVLQGCSSIGLRLV [KLHL14]"
cat = "bottom bin"

[[record]]
seq_string = "GSFNGSEKETMQFLNDRLANYLEK [KRT36]"
cat = "middle bin"

[[record]]
seq_string = "PQPPDAPQLVSSAREGSSEPWLPL [PLEKHN1]"
cat = "top bin"

[[record]]
seq_string = "TETEATNSLITAPGEFSDASMSPD [SMAD6]"
cat = "top bin"

[[record]]
seq_string = "ADGGGAPPQGGCGGGGCDRYEPLP [KCNA3]"
cat = "top bin"

[[record]]
seq_string = "LTQLHRLSLESSPDAPDHTSETSH [PLEKHN1]"
cat = "top bin"

[[record]]
seq_string = "KLSARDHQKLEREARICRLLKHPN [CAMK2D]"
cat = "middle bin"

[[record]]
seq_string = "TPFLTNHGAHKAEKKLFECLTCGK [ZNF263]"
cat = "middle bin"

